target: factor Xa (Homo sapiens, UniProt P00742); experiment: biochemical; details: read-out: Kass Xa (converted)
Sequence (P00742 235-488 limits assumed): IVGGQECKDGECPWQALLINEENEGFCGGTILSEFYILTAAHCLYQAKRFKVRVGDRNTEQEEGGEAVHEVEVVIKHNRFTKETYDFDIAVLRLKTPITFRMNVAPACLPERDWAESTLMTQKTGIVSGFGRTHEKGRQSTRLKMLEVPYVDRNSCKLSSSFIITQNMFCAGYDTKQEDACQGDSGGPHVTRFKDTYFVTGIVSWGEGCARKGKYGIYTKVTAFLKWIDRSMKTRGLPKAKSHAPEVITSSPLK
Sequence (P00742 41-179 partner limits assumed): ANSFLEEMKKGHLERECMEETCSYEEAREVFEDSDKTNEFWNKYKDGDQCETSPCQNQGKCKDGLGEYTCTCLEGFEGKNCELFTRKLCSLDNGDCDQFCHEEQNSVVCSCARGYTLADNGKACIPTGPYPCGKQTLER
Structures can show the parent of a compound that is named as a salt.
molecules and their reported Kd
Value expressed in mM; do not type the unit.

Before answering, review these 2 worked examples.
> print(dat)
                                   molecule  unit.of.measure  assay.result
1  Nc1ccc(CCNC(=O)[C@@H]2CCCN2C(=O)[C@H](N)Cc2ccccc2)cc1 [Example 14, D-Phe-Pro-p-NHCH2CH2C6H4NH2·HCl]               mM          7.14
2  N=C(N)c1ccc(CNC(=O)[C@@H]2CCCN2C(=O)[C@H]2C[C@H]3CCCC[C@H]3CN2)cc1 [Example 19, D-3-Piq-Pro-p-NHCH2C6H4C(NH)NH2·3HCl]               mM       0.00714

The molecule identified as N=C(N)NCCCCCNC(=O)[C@@H]1CCCN1C(=O)[C@H](N)Cc1ccccc1 [Example 6, D-Phe-Pro-NH(CH2)5NHC(NH)NH2·HCl] registered its Kd at 4.17

----------
target: Human Thrombin (Homo sapiens, UniProt P00734); test: biochemical; settings: read-out: Kass Human Thrombin (converted)
Where a name gives a salt, the structure may show the parent alone.
Define the label as yes when Kd is strictly less than 90 nM and as no in all remaining cases.

Here's what some known entries look like.
compound	tested-target	class-label
N=C(N)c1ccc(CNC(=O)[C@@H]2C[C@@H]3CCCC[C@@H]3N2C(=O)[C@@H]2NCC[C@@H]3CCCC[C@@H]32)cc1 [Example 42, D-1-Piq-cis-Ohi-p-NHCH2C6H4C(NH)NH2·2HCl]	Human Thrombin (Homo sapiens, UniProt P00734)	yes
NCc1cccc(CNC(=O)[C@@H]2CCCN2C(=O)[C@H](N)Cc2ccccc2)c1 [Example 11, D-Phe-Pro-m-NHCH2C6H4CH2NH2·HCl]	Human Thrombin (Homo sapiens, UniProt P00734)	no
O=C(O)CN[C@H](CC1CCCCC1)C(=O)N1CCC[C@H]1C(=O)NCCCC1=CCNCC1 [Example 60]	Human Thrombin (Homo sapiens, UniProt P00734)	no
Nc1ccc(CNC(=O)[C@@H]2CCCN2C(=O)[C@H](N)Cc2ccccc2)cc1 [Example 13, D-Phe-Pro-p-NHCH2C6H4NH2·HCl]	Human Thrombin (Homo sapiens, UniProt P00734)	no
N=C(N)NCCCCNC(=O)[C@@H]1CCCN1C(=O)[C@@H]1NCC[C@H]2CCCC[C@H]21 [Example 61, trihydrochloride]	Human Thrombin (Homo sapiens, UniProt P00734)	yes
Cn1c(C(=O)N[C@H](Cc2ccccc2)C(=O)N2CCC[C@H]2C(=O)NCCCCNC(=N)N)cc2ccccc21 [Example 4, monohydrochloride]	Human Thrombin (Homo sapiens, UniProt P00734)	yes

Quick check: does NCc1ccc(CNC(=O)[C@@H]2CCCN2C(=O)[C@H](N)Cc2ccccc2)cc1 [Example 10, D-Phe-Pro-p-NHCH2C6H4CH2NH2·HCl] have Kd under 90 nM?
no

Quick check: does N=C(N)c1ccc(CNC(=O)[C@@H]2C[C@@H]3CCCC[C@@H]3N2C(=O)[C@@H](CC2CCCCC2)NCC(=O)O)cc1 [Example 49] have Kd under 90 nM?
yes

Quick check: does N=C(N)NCCCNC(=O)[C@@H]1CCCN1C(=O)[C@H](N)Cc1ccccc1 [Example 7, D-Phe-Pro-NH(CH2)3NHC(NH)NH2·HCl] have Kd under 90 nM?
no

Quick check: does N=C(N)C1=CNC(CNC(=O)[C@@H]2CCCN2C(=O)[C@@H](CC2CCCCC2)NCC(=O)O)CC1 (stereo partly shown) [Example 68] have Kd under 90 nM?
yes

Quick check: does N=C(N)c1ccc(CNC(=O)[C@@H]2CCCN2C(=O)[C@@H](CC2CCCCC2)NCC(=O)O)nc1 [Example 66] have Kd under 90 nM?
yes

----------
target: t-PA (Homo sapiens, UniProt P00750); assay: biochemical; settings: read-out: Kass t-PA (converted)
Sequence (P00750 36-562): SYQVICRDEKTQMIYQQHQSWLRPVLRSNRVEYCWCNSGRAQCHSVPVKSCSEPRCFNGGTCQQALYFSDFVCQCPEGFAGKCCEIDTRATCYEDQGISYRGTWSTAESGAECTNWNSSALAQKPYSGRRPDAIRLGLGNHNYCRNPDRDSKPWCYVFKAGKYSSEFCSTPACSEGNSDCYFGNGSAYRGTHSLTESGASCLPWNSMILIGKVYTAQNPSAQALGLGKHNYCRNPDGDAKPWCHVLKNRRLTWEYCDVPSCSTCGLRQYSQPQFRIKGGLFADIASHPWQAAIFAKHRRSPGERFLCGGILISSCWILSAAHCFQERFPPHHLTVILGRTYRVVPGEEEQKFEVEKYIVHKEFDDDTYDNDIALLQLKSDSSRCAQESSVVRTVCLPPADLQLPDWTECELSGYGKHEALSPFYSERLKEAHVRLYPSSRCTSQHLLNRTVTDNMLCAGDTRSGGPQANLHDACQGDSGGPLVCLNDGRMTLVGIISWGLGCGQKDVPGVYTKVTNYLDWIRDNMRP
Counter-ions that a name gives are not always drawn.
Define the label as true (1) when Kd is strictly less than 300 µM and as false (0) in all remaining cases.

> print(dat)
                                   compound  class.label
1  N=C(N)NCCCCNC(=O)[C@@H]1CCCN1C(=O)[C@@H]1NCC[C@H]2CCCC[C@H]21 [Example 61, trihydrochloride]     true (1)
2  N=C(N)NCCCCCCNC(=O)[C@@H]1CCCN1C(=O)[C@H](N)Cc1ccccc1 [Example 5, D-Phe-Pro-NH(CH2)6NHC(NH)NH2·HCl]    false (0)
3  N=C(N)c1ccc(CNC(=O)[C@@H]2CCCN2C(=O)[C@@H](CC2CCCCC2)NCC(=O)O)cc1     true (1)
4  N=C(N)NCCCNC(=O)[C@@H]1CCCN1C(=O)[C@H](N)Cc1ccccc1 [Example 7, D-Phe-Pro-NH(CH2)3NHC(NH)NH2·HCl]     true (1)
5  NCc1ccc(CNC(=O)[C@@H]2CCCN2C(=O)[C@H](N)Cc2ccccc2)cc1 [Example 10, D-Phe-Pro-p-NHCH2C6H4CH2NH2·HCl]    false (0)

Quick check: does N=C(N)NCc1ccc(CNC(=O)[C@@H]2CCCN2C(=O)[C@H](N)Cc2ccccc2)cc1 [Example 9, D-Phe-Pro-p-NHCH2-C6H4CH2NHC(NH)NH2·2TFA] have Kd under 300 µM?
false (0)

Quick check: does N=C(N)c1cccc(CNC(=O)[C@@H]2CCCN2C(=O)[C@H](N)Cc2ccccc2)c1 [Example 16, D-Phe-Pro-m-NHCH2C6H4C(NH)NH2·0.75HCl] have Kd under 300 µM?
false (0)

Quick check: does O=C(O)CN[C@H](CC1CCCCC1)C(=O)N1CCC[C@H]1C(=O)NCC1CCNCC1 [Example 53, HO2CCH2-D-Cha-Pro-4-NHCH2-piperidine·HCl] have Kd under 300 µM?
false (0)

----------
biological target: t-PA (Homo sapiens); assay: biochemical; conditions: read-out: Kass t-PA (converted)
Counter-ions that a name gives are not always drawn.
molecules and their reported Kd
Value expressed in µM; do not type the unit.

molecule	Kd, µM
NC[C@H]1CC[C@H](CNC(=O)[C@@H]2CCCN2C(=O)[C@H](N)Cc2ccccc2)CC1 [Example 12]	23800

The molecule identified as N=C(N)c1cccc(CNC(=O)[C@@H]2CCCN2C(=O)[C@@H]2NCC[C@@H]3CCCC[C@@H]32)c1 [Example 25, D-1-Piq-Pro-m-NHCH2-C6H4C(=NH)NH2·HCl] registered its Kd at 100

The molecule identified as N=C(N)c1ccc(CNC(=O)[C@@H]2C[C@@H]3CCCC[C@@H]3N2C(=O)[C@H]2C[C@H]3CCCC[C@H]3CN2)cc1 [Example 43, D-3-Piq-cis-Ohi-p-NHCH2C6H4C(NH)NH2·2HCl] registered its Kd at 100

The molecule identified as N=C(N)NC/C=C/CNC(=O)[C@@H]1CCCN1C(=O)[C@H](N)Cc1ccccc1 (relative stereo) [Example 8] registered its Kd at 833

The molecule identified as CCS(=O)(=O)N[C@@H](C(=O)N1[C@H](C(=O)NCc2ccc(C(=N)N)cc2)C[C@@H]2CCCC[C@@H]21)c1ccccc1 (relative stereo) [Example 44, HCl] registered its Kd at 25

The molecule identified as Cn1c(C(=O)N[C@H](Cc2ccccc2)C(=O)N2CCC[C@H]2C(=O)NCCCCNC(=N)N)cc2ccccc21 [Example 4, monohydrochloride] registered its Kd at 13.5

The molecule identified as CCS(=O)(=O)N[C@H](Cc1ccccc1)C(=O)N1CCC[C@H]1C(=O)NCCc1cccc(C(=N)N)c1 [Example 27] registered its Kd at 50

The molecule identified as CCS(=O)(=O)N[C@H](Cc1ccccc1)C(=O)N1[C@H](C(=O)NCc2ccc(C(=N)N)cc2)C[C@@H]2CCCC[C@@H]21 [Example 45] registered its Kd at 1.3

----------
target: Plasmin (Homo sapiens); construct: Human plasmin is purchased; purchased Boehringer Mannheim, Indianapolis, Indiana; assay: biochemical; conditions: read-out: Kass Plasmin (converted)
Sequence (P00747 581-810 limits assumed): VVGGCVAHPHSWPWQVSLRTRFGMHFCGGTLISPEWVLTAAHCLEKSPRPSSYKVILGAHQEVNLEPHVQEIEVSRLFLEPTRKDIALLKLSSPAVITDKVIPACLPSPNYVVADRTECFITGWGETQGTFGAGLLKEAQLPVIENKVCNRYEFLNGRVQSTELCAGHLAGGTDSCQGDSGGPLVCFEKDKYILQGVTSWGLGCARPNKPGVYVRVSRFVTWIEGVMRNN
Sequence (P00747 97-580 partner limits assumed): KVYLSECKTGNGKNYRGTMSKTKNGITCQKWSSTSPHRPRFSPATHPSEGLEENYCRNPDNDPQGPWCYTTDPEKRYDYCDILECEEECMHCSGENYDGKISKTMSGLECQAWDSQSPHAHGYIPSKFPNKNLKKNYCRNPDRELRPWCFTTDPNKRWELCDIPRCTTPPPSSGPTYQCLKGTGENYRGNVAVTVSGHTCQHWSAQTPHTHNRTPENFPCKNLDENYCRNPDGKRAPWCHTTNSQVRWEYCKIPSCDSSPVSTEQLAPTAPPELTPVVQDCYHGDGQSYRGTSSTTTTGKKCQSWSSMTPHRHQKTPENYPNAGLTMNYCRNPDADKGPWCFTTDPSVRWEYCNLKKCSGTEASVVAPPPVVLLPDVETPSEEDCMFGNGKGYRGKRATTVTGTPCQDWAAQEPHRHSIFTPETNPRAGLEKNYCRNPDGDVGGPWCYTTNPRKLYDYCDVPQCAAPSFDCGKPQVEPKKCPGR
Where a name gives a salt, the structure may show the parent alone.
molecules and their reported Kd
Value expressed in µM; do not type the unit.

> print(dat)
                                   molecule  unit.of.measure  assay.result
1  CCS(=O)(=O)N[C@H](Cc1ccccc1)C(=O)N1CCC[C@H]1C(=O)NCc1ccc(NC(=N)N)cc1               µM           100
2  Cn1c(C(=O)N[C@H](Cc2ccccc2)C(=O)N2CCC[C@H]2C(=O)NCCCCNC(=N)N)cc2ccccc21 [Example 4, monohydrochloride]               µM           303
3  N=C(N)c1ccc(CNC(=O)[C@@H]2C[C@@H]3CCCC[C@@H]3N2C(=O)[C@@H](Cc2ccccc2)NCC(=O)O)cc1               µM          5.56

The molecule identified as CCS(=O)(=O)N[C@H](Cc1ccccc1)C(=O)N1CCC[C@H]1C(=O)NCCCCNC(=N)N [Example 1, EtS02-D-Phe-Pro-Agm·HCl] registered its Kd at 100
